subject.of.test: Luciferin 4-monooxygenase (Photinus pyralis)
assay.summary: qHTS assay to identify small molecule inhibitors of firefly luciferase (AID 1224835); further: on the % scale 0 is the no-effect control and ±100 the full control effect; nearly all actives have a fitted effect of over 25% in size
reported.conditions: purified P. pyralis luciferase, luminescence inhibition; series mostly up to 115 µM
Inconclusive results are not listed. Calls of active or inactive are those of the source. The call rests on the fitted dose curve; in most records, active means well fitted inhibition curve with a large enough effect in the repeat runs; inconclusive means weak or mixed curves; inactive means flat fitted curve, though single readings scatter.
quantity.kind: activity change, negative = inhibition

>  <molecule>
COc1ccc2c(c1)c(CC(=O)OCC(=O)O)c(C)n2C(=O)c1ccc(Cl)cc1

>  <obs.value>
inactive

$$$$
>  <molecule>
CCOC(=O)c1c(C)n(C)c2ccc(O)cc12

>  <obs.value>
inactive

$$$$
>  <molecule>
NC(=O)COCCN1CCN(C(c2ccccc2)c2ccc(Cl)cc2)CC1 (stereo not drawn)

>  <obs.value>
inactive

$$$$
>  <molecule>
CC1(C)C(O)C(C)(C)C1O (stereo not drawn)

>  <obs.value>
inactive

$$$$
>  <molecule>
CCCN(CCC)CCc1cccc2c1CC(=O)N2

>  <obs.value>
inactive

$$$$
>  <molecule>
CC(C)=CCCC(C)CC(=O)O (stereo not drawn)

>  <obs.value>
inactive

$$$$
>  <molecule>
C[C@H]1C[C@@H](O)CC(C)(C)C1

>  <obs.value>
inactive

$$$$
>  <molecule>
CN1CCC(=C2c3ccccc3CC(=O)c3sccc32)CC1

>  <obs.value>
inactive

$$$$
>  <molecule>
CN1CCCC1

>  <obs.value>
inactive

$$$$
>  <molecule>
Oc1ccc(C2CNCCc3c2cc(O)c(O)c3Cl)cc1 (stereo not drawn)

>  <obs.value>
inactive

$$$$
>  <molecule>
COCCCOCCCOC

>  <obs.value>
inactive

$$$$
>  <molecule>
COC(=O)c1cc(C(=O)OC)cc(S(=O)(=O)O)c1

>  <obs.value>
inactive

$$$$
>  <molecule>
OC(CCN1CCCCC1)(c1ccccc1)C1CC2C=CC1C2 (stereo not drawn)

>  <obs.value>
inactive

$$$$
>  <molecule>
CC(=O)c1ccccc1O

>  <obs.value>
inactive

$$$$
>  <molecule>
CCCN1CCCC[C@H]1C(=O)Nc1c(C)cccc1C

>  <obs.value>
inactive

$$$$
>  <molecule>
CCCCC(CC)COC(=O)c1ccccc1O (stereo not drawn)

>  <obs.value>
inactive

$$$$
>  <molecule>
CCC=O

>  <obs.value>
inactive

$$$$
>  <molecule>
CCN1CCC[C@H]1CNC(=O)c1c(O)c(Cl)cc(Cl)c1OC

>  <obs.value>
inactive

$$$$
>  <molecule>
CCCCOCCOCCOCCCC

>  <obs.value>
inactive

$$$$
>  <molecule>
COc1nc(N)nc2c1ncn2[C@@H]1O[C@H](CO)[C@@H](O)[C@@H]1O

>  <obs.value>
inactive

$$$$
>  <molecule>
O=C(CCCN1CCN(c2ccccn2)CC1)c1ccc(F)cc1

>  <obs.value>
inactive

$$$$
>  <molecule>
N[C@@H](C(=O)N[C@@H]1C(=O)N2C(C(=O)O)=C(Cl)CS[C@H]12)c1ccccc1

>  <obs.value>
-5.09% [at 10.5 µM] (inactive)

$$$$
>  <molecule>
Nc1c[n+](N2CCOCC2)no1

>  <obs.value>
inactive

$$$$
>  <molecule>
CCSC(=O)N(CC(C)C)CC(C)C

>  <obs.value>
inactive

$$$$
>  <molecule>
N=C(N)c1ccc(OCCCOc2ccc(C(=N)N)cc2)cc1

>  <obs.value>
inactive

$$$$
>  <molecule>
C=C[Si](OC(=C)C)(OC(=C)C)OC(=C)C

>  <obs.value>
inactive

$$$$
>  <molecule>
CC(C)CCCC(C)N (stereo not drawn)

>  <obs.value>
inactive

$$$$
>  <molecule>
CC(C)(C)NCCNC(C)(C)C

>  <obs.value>
inactive

$$$$

The values you see were collected from PubChem BioAssay (Tox21).
